- Test system: F508delCFTR (Homo sapiens, UniProt P13569, DEL508-508)
- Sequence (P13569 with tags, fused parts or gaps DEL508-508): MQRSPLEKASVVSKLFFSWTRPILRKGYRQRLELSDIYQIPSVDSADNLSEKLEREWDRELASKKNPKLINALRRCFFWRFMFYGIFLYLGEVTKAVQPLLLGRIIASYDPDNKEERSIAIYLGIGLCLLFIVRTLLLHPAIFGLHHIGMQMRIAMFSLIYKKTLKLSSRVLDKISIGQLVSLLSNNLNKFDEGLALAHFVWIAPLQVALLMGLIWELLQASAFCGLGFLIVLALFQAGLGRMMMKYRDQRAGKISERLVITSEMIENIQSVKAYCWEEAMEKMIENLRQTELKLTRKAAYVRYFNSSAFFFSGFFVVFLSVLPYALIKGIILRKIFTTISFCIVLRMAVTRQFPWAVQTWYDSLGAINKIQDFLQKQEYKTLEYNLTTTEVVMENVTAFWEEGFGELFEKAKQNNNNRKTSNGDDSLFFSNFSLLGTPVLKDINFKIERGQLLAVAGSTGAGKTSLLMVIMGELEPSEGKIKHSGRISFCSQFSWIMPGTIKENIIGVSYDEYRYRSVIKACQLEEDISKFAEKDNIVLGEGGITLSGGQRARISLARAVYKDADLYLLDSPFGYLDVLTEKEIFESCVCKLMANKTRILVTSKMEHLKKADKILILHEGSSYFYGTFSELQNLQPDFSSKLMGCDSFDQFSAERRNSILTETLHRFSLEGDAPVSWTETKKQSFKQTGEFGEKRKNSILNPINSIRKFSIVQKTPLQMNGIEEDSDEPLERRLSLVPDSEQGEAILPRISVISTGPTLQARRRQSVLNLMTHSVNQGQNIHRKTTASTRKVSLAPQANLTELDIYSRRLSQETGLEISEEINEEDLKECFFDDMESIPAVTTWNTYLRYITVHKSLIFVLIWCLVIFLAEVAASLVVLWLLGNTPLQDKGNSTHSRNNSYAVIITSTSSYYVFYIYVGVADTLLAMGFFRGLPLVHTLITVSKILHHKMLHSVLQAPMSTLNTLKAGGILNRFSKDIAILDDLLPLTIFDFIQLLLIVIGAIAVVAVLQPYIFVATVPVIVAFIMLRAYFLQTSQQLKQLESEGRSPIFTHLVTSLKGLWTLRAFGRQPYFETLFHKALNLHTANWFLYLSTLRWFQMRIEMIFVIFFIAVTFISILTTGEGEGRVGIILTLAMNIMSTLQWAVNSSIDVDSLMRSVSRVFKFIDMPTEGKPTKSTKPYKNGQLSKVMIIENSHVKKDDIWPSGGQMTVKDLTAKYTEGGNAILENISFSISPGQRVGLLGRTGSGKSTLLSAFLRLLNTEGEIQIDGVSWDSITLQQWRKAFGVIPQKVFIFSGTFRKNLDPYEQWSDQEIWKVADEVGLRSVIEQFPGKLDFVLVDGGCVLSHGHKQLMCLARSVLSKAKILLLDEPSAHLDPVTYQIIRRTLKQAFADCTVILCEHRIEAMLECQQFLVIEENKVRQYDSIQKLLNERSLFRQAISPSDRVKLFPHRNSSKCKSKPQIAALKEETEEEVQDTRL
- Test method notes: Cell Surface Expression-Horse Radish Peroxidase (CSE-HRP) assay
- Recorded conditions: CFBE41o-F508delCFTR-HRP cells; F508delCFTR cell surface expression, luminescence; 18-24 hours at 33° C.; highest concentration 20 μM
Quantity kind: EC50 (nM)

Recorded EC50, per entry:
{"Compound": "COc1ccc2c(c1)OC(c1ccc(OC)c(OC)c1)CC2NC(=O)C(C)(C)c1ccc(Cl)cc1 (stereo not drawn) [Example 22]", "Assay value": 990}
{"Compound": "COc1ccc2c(c1)CC[C@]2(C)C(=O)N[C@@H]1C[C@H](c2ccc(C(=O)O)cc2)Oc2cc(OC)ccc21 [Example 69]", "Assay value": 100}

1 = COc1ccc2c(c1)O[C@@H](c1ccc(C(=O)O)cc1)C[C@H]2NC(=O)C1(c2ccc(OC)c(OC)c2)CCC1 [Example 116]
2 = O=C(N[C@@H]1C[C@H]([C@H]2CC[C@H](C(=O)O)CC2)Oc2cc(OC(F)F)ccc21)C1(c2ccc3c(c2)OC(F)(F)O3)CC1 [Example 15B]
3 = COc1ccc2c(c1)O[C@@H](c1ccc(C(=O)O)cc1)C[C@H]2NC(=O)C1(c2ccc(Cl)c(Cl)c2)CCC1 [Example 95]
4 = COC(=O)c1ccc([C@H]2C[C@@H](NC(=O)[C@]3(C)CCc4cc(Cl)ccc4O3)c3ccccc3O2)cc1 [Example 61]
5 = CCOC(=O)[C@H]1CC[C@H]([C@H]2C[C@@H](NC(=O)C3(c4ccc5c(c4)OC(F)(F)O5)CC3)c3ccc(OC)cc3O2)CC1 [Example 10]
### Prompt Order by EC50, ascending. Reply format: the labels, ordered as requested.
### Response 2, 5, 3, 1, 4
(2: 110 nM, 5: 290 nM, 3: 1330 nM, 1: 3250 nM, 4: 5880 nM)
